TARGET SYSTEM: chymotrypsin (Bos taurus)
RUN DESCRIPTION: in vitro
STATED CONDITIONS: cattle (bovine), pH 8
REPORTED PROPERTY: half-life at 0.208 mM
The number alone won't do; follow it with the unit.

QUERY: Quick one: half-life at 0.208 mM of CC[C@H](C)[C@H](NC(=O)[C@H](CCCNC(=N)N)NC(=O)[C@H](CCCNC(=N)N)NC(=O)[C@H](CC(C)C)NC(=O)[C@H](CCC(N)=O)NC(=O)[C@H](C)NC(=O)[C@H](C)NC(C)=O)C(=O)NCC(=O)N[C@@H](CC(=O)O)C(=O)N[C@@H](CCCCN)C(=O)N[C@H](C(=O)N[C@@H](CC(N)=O)C(=O)N[C@@H](CC(C)C)C(=O)N[C@@H](CCCNC(=N)N)C(=O)N[C@@H](CCC(N)=O)C(=O)N[C@@H](CCCCN)C(=O)N[C@@H](CC(C)C)C(=O)N[C@@H](CC(C)C)C(=O)N[C@@H](CC(N)=O)C(N)=O)C(C)C [NoxaB^75-93-C75A] ?
RESULT: 3.3 min

---

TARGET SYSTEM: trypsin (Sus scrofa, UniProt P00761)
Sequence (P00761 9-231): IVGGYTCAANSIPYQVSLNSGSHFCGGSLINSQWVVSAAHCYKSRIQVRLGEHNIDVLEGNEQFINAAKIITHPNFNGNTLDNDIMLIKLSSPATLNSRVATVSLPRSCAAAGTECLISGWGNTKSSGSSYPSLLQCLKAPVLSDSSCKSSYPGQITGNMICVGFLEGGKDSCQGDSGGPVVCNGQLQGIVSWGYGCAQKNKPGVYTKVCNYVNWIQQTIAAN
RUN DESCRIPTION: in vitro
STATED CONDITIONS: pig (porcine), pH 8
REPORTED PROPERTY: half-life at 0.208 mM

QUERY: Consider the molecule shown here: CC[C@H](C)[C@H](NC(=O)[C@H](CCCNC(=N)N)NC(=O)[C@H](CCCNC(=N)N)NC(=O)[C@H](CC(C)C)NC(=O)[C@H](CCC(N)=O)NC(=O)[C@H](C)NC(=O)[C@H](C)NC(C)=O)C(=O)NCC(=O)N[C@@H](CC(=O)O)C(=O)N[C@@H](CCCCN)C(=O)N[C@H](C(=O)N[C@@H](CC(N)=O)C(=O)N[C@@H](CC(C)C)C(=O)N[C@@H](CCCNC(=N)N)C(=O)N[C@@H](CCC(N)=O)C(=O)N[C@@H](CCCCN)C(=O)N[C@@H](CC(C)C)C(=O)N[C@@H](CC(C)C)C(=O)N[C@@H](CC(N)=O)C(N)=O)C(C)C [NoxaB^75-93-C75A] What is its recorded half-life at 0.208 mM?
RESULT: 1.8 min

---

System: HeLa cells
RUN DESCRIPTION: Cell viability assay (CellTiter-Glo, ATP) and DIC imaging, cytotoxicity
Assay type: cell-based
STATED CONDITIONS: 10 μM, 2 hours; DIC channel and ATP assay
Numbered stars: 1 amine (or outer) side, 2 acyl side, 3 side chain; on linkers, the order of the positions; unused ones are H or OH. Bridge positions count the residues as written; N and C are the ends. Square brackets hold non-standard residues; d marks the D form. Peptide text beside a SMILES is read from it. CH2(3,3'-bipyridine-6,6')CH2 = c1cc(C[*:1])ncc1-c1ccc(C[*:2])nc1
REPORTED PROPERTY: cytotoxicity

[[record]]
compound = "CC(=O)N[C@@H](CC(C)C)C(=O)N[C@H](C(=O)N[C@@H](Cc1ccccc1)C(=O)N[C@H]1CSCc2ccc(cn2)-c2ccc(nc2)CSC[C@@H](C(=O)N[C@@H](CO)C(N)=O)NC(=O)[C@H](CC(C)C)NC(=O)[C@H](CCCNC(=N)N)NC(=O)[C@H](C)NC(=O)[C@H](Cc2c[nH]c3ccccc23)NC(=O)[C@H](Cc2ccc(O)cc2)NC(=O)[C@H](CCCNC(=N)N)NC1=O)[C@@H](C)O [Peptide 2b, LTFC″RYWARLC″S] (Ac-LTFCRYWARLCS-NH2; linker 4-11 via CH2(3,3'-bipyridine-6,6')CH2)"
reported_property = "cytotoxicity"
val = "apparent cytotoxicity"

[[record]]
compound = "CC(=O)N[C@@H](CC(C)C)C(=O)N[C@H](C(=O)N[C@@H](Cc1ccccc1)C(=O)N[C@@H]1CSCc2ccc(cn2)-c2ccc(nc2)CSC[C@@H](C(=O)N[C@@H](CO)C(N)=O)NC(=O)[C@H](CC(C)C)NC(=O)[C@H](CCCNC(=N)N)NC(=O)[C@H](C)NC(=O)[C@H](Cc2c[nH]c3ccccc23)NC(=O)[C@H](Cc2ccc(O)cc2)NC(=O)[C@H](CCCNC(=N)N)NC1=O)[C@@H](C)O [Peptide 4b, LTFc″RYWARLC″S] (Ac-LTF[dC]RYWARLCS-NH2; linker 4-11 via CH2(3,3'-bipyridine-6,6')CH2; C-terminus assumed)"
reported_property = "cytotoxicity"
val = "apparent cytotoxicity"


These entries and their values trace back to patent US9029332B2.
